Target: GST-Rok-C97-191 (Bacillus subtilis subsp. subtilis str. …, UniProt O34857 97-191)
Sequence: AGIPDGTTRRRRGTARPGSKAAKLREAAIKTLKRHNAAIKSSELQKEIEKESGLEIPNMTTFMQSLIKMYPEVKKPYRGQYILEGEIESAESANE
Assay: protein binding microarray; high values mean tight binding
Details: protein: recombinant; tags: GST (pTH5325, pDEST15-Magic modified); dsDNA, one strand shown
Over roughly 33,000 sequences, “e-score” has its median near -0.038; the highest 2% begin near 0.33. The sample holds the highest values, similar sequences and a random draw of the others, so the mix is not that of the screen.
Consider the reported binding signal of an entry and match it to a band in c1 = under 0.09 E-score, c2 = from 0.09 E-score up to 0.3 E-score, c3 = 0.3 E-score and over

sequence_chain=ATGTACAT class_name=c3
sequence_chain=GGACTAAA class_name=c2
sequence_chain=AATGATCA class_name=c2
sequence_chain=CCCGCTAC class_name=c1

In: Any idea which band ATGTACAA is in?
Out: c3

In: Any idea which band ATACTAAA is in?
Out: c3

In: Any idea which band ACTCTTTA is in?
Out: c1

In: Any idea which band ACATCGAG is in?
Out: c1

In: Any idea which band CTACTAAG is in?
Out: c2

In: Any idea which band CTACTAAA is in?
Out: c3

In: Any idea which band GTACTAAA is in?
Out: c3

###

Quick list: binding signal per entry.
Target: GST-Rok-C97-191 (Bacillus subtilis subsp. subtilis str. …, UniProt O34857 97-191)
Sequence: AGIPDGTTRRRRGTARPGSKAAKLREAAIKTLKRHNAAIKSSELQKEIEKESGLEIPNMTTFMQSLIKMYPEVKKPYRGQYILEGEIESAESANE
Assay: protein binding microarray; high values mean tight binding
Conditions: protein: recombinant; tags: GST (pTH5325, pDEST15-Magic modified); dsDNA, one strand shown
Over roughly 33,000 sequences, “e-score” has its median near -0.038; the highest 2% begin near 0.33. The entries come from a sample that favours the highest values as a whole.
Give the number; E-score is assumed, so skip it.

Check out these entries, answers already filled in.
sequence_chain=AGATATAA assayed_target="GST-Rok-C97-191 (Bacillus subtilis subsp. subtilis str. …, UniProt O34857 97-191)" recorded_result=0.282
sequence_chain=ATTATCTC assayed_target="GST-Rok-C97-191 (Bacillus subtilis subsp. subtilis str. …, UniProt O34857 97-191)" recorded_result=0.0108
sequence_chain=GGTATCTA assayed_target="GST-Rok-C97-191 (Bacillus subtilis subsp. subtilis str. …, UniProt O34857 97-191)" recorded_result=0.23
sequence_chain=CTAGTTGA assayed_target="GST-Rok-C97-191 (Bacillus subtilis subsp. subtilis str. …, UniProt O34857 97-191)" recorded_result=0.2
sequence_chain=CTAGTTCC assayed_target="GST-Rok-C97-191 (Bacillus subtilis subsp. subtilis str. …, UniProt O34857 97-191)" recorded_result=0.262
sequence_chain=AGTATCTC assayed_target="GST-Rok-C97-191 (Bacillus subtilis subsp. subtilis str. …, UniProt O34857 97-191)" recorded_result=0.185
sequence_chain=CTAAGTAA assayed_target="GST-Rok-C97-191 (Bacillus subtilis subsp. subtilis str. …, UniProt O34857 97-191)" recorded_result=0.266
sequence_chain=CCGCAAAA assayed_target="GST-Rok-C97-191 (Bacillus subtilis subsp. subtilis str. …, UniProt O34857 97-191)" recorded_result=-0.142
sequence_chain=CTAGTTAC assayed_target="GST-Rok-C97-191 (Bacillus subtilis subsp. subtilis str. …, UniProt O34857 97-191)" recorded_result=0.38
sequence_chain=CCTATCTA assayed_target="GST-Rok-C97-191 (Bacillus subtilis subsp. subtilis str. …, UniProt O34857 97-191)" recorded_result=0.319

In: Form entry - test system: GST-Rok-C97-191 (Bacillus subtilis subsp. subtilis str. …, UniProt O34857 97-191); read-out: binding signal; sequence: ATTATCTG
Out: 0.203

In: Form entry - test system: GST-Rok-C97-191 (Bacillus subtilis subsp. subtilis str. …, UniProt O34857 97-191); read-out: binding signal; sequence: GGAGTTTA
Out: 0.0723

In: Form entry - test system: GST-Rok-C97-191 (Bacillus subtilis subsp. subtilis str. …, UniProt O34857 97-191); read-out: binding signal; sequence: CTAGTTCA
Out: 0.0257

In: Form entry - test system: GST-Rok-C97-191 (Bacillus subtilis subsp. subtilis str. …, UniProt O34857 97-191); read-out: binding signal; sequence: GCAGTTTA
Out: 0.113

In: Form entry - test system: GST-Rok-C97-191 (Bacillus subtilis subsp. subtilis str. …, UniProt O34857 97-191); read-out: binding signal; sequence: ATAGTGTA
Out: 0.346

In: Form entry - test system: GST-Rok-C97-191 (Bacillus subtilis subsp. subtilis str. …, UniProt O34857 97-191); read-out: binding signal; sequence: AGATATAG
Out: 0.188

In: Form entry - test system: GST-Rok-C97-191 (Bacillus subtilis subsp. subtilis str. …, UniProt O34857 97-191); read-out: binding signal; sequence: ATTCTTGC
Out: 0.103

In: Form entry - test system: GST-Rok-C97-191 (Bacillus subtilis subsp. subtilis str. …, UniProt O34857 97-191); read-out: binding signal; sequence: GGTTCCGA
Out: 0.0637

###

Target: GST-Rok-C97-191 (Bacillus subtilis subsp. subtilis str. …, UniProt O34857 97-191)
Sequence: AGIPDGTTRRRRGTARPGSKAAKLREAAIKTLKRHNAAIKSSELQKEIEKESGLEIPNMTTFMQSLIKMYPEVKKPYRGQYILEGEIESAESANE
Experiment: protein binding microarray; high values mean tight binding
Details: protein: recombinant; tags: GST (pTH5325, pDEST15-Magic modified); dsDNA, one strand shown
Over roughly 33,000 sequences, “e-score” has its median near -0.038; the highest 2% begin near 0.33. This excerpt belongs to a sample that is enriched for the highest values.
So basically, if binding signal comes in under 0.2 E-score it's Yes, and if it's 0.2 E-score or more it's No.

Previously resolved entries follow.
sequence_chain=CGTCGAAA class_name=Yes
sequence_chain=GATGGCGA class_name=Yes
sequence_chain=ATGTGCAC class_name=Yes
sequence_chain=ATTAGGGC class_name=Yes
sequence_chain=AATATAAA class_name=No
sequence_chain=GCTATCGA class_name=Yes

In: Hello, I'm reviewing records and need to know if binding signal of ATCGTAGC is below 0.2 E-score. Could you check?
Out: Yes

In: Hello, I'm reviewing records and need to know if binding signal of AGGTTAGG is below 0.2 E-score. Could you check?
Out: Yes

In: Hello, I'm reviewing records and need to know if binding signal of GTAATGTA is below 0.2 E-score. Could you check?
Out: No

In: Hello, I'm reviewing records and need to know if binding signal of ATAGTAGG is below 0.2 E-score. Could you check?
Out: No

In: Hello, I'm reviewing records and need to know if binding signal of CATATAAA is below 0.2 E-score. Could you check?
Out: Yes

###

Molecular target: GST-Rok-C97-191 (Bacillus subtilis subsp. subtilis str. …, UniProt O34857 97-191)
Sequence: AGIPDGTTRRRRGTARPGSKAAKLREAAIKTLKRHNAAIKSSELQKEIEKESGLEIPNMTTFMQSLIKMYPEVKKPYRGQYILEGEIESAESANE
Assay: protein binding microarray; Rok is a gene silencer of Bacillus subtilis; high values mean tight binding
Settings: protein: recombinant; tags: GST (pTH5325, pDEST15-Magic modified); dsDNA, one strand shown
Whole data set: some 33,000 sequences, median “e-score” near -0.038, cut for the highest 2% near 0.33. The list comes from a sample in which the highest values are over-represented; it also holds close analogues and randomly drawn sequences.
So basically, if binding signal comes in under 0.1 E-score it's class 1, and if it's 0.1 E-score or more it's class 0.

sequence_chain=CAGTTATA class_name="class 0"
sequence_chain=AAAAGAGA class_name="class 0"
sequence_chain=CTTAGCGC class_name="class 1"
sequence_chain=GTGCGAAC class_name="class 1"
sequence_chain=CCTAATCC class_name="class 1"
sequence_chain=AAACTCTT class_name="class 1"
sequence_chain=AAACTATT class_name="class 0"
sequence_chain=AGTATCGA class_name="class 0"
sequence_chain=GGTCCGAC class_name="class 1"
sequence_chain=TAGTTATA class_name="class 0"

In: Hello, I'm reviewing records and need to know if binding signal of CAGACGGA is below 0.1 E-score. Could you check?
Out: class 1
